Just for reference, PubChem BioAssay (NCI) is where these values come from.

Quick reference for growth among some compounds
- Tested on: UACC-257 melanoma
- Procedure Summary: NCI-60 one-dose screen, 48 h (100 = growth as untreated, 0 = no growth, -100 = all killed)
- Cond: 10 µM unless noted
- Protocol: Cells are grown in 96 well plates and exposed to the test compound for 48 hours. Compounds are tested at a single concentration, which is 10^-5 M for most compounds. The reported endpoint is percent growth (GI% or GIPRCNT), where numbers from 0 - 100% represent growth inhibition, and numbers from -100% - 0 represent cell death. For example, a value of 40 represents 60% growth inhibition. A value of 0 means no net growth occurred over the course of the experiment. […]
About 83,000 compounds went through this panel and 20% of them were active in at least one assay; those are over-represented in the sample as a whole.
Could you give me the number in %? Just the number is fine.

O=C1c2c(c3c4cc(F)ccc4oc3c3[nH]c4ccc(Br)cc4c23)C(=O)N1O 88.5
O=C(CSc1nc2ccccc2c(=O)[nH]1)NCCN1CCCCC1 97.3

Asked: Can you look up the measured growth of `COC(=O)C[C@](O)(CCCC(C)(C)O)C(=O)O[C@H]1C(OC)=C[C@@]23CCCN2CCc2cc4c(cc2[C@@H]13)OCO4` for me?
Given back: -28.2

Asked: Can you look up the measured growth of `COc1ccc(C(=O)Nc2n[nH]c(Nc3ccccc3)c2C#N)cc1` for me?
Given back: 137

Asked: Can you look up the measured growth of `Clc1cccc(N/N=C/c2c[nH]c3ccc(Br)cc23)n1` for me?
Given back: 57.6

Asked: Can you look up the measured growth of `CC(C)c1ccc2c(N)c(C(=O)Nc3ccc(C(F)(F)F)cn3)sc2n1` for me?
Given back: 60
